Target: T1, His10/Avi Cyno IL-33 (cynomolgus monkey)
T1 construct: also called Cynomolgus 10His Avitag IL-33; biotinylated His Avi cynomolgus IL-33
T1 chain: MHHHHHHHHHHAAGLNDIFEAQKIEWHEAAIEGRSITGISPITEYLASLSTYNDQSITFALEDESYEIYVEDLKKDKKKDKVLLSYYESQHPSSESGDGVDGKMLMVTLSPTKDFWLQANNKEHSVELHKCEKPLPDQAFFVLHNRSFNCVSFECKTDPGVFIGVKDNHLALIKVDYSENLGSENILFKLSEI
Experiment: HTRF epitope competition, IgG titrated; competitor DyLight labelled 33_640117 IgG; 1 hour
Description: As the epitope competition assay utilising 33_640027 reached its limit of sensitivity, an assay using 33_640117 was used for testing purified scFv samples. The assay was essentially as described for the 33v20064 competition assay with the following modifications: 2.5 nM DyLight labelled 33_640117 was prepared and 2.5 microlitres added to the assay plates. […] Fluorescence was read after one hour and overnight incubation. […]
Documented IC50 across a set of binders
# output: bare number, implied unit nM

These recorded examples may help you get a feel for the data.
binder	IC50 / nM
33_640050 IgG1 (antibody, V domains shown, IgG1; also called ZZ1F7Q-D10) VH: EVQLLESGGGLVQPGGSLRLSCAASGFTFSSYAMSWVRQAPGKGLEWVSAISGSGGSTYYADSVKGRFTISRDNSKNTLYLQMNSLRAEDTAVYYCPRHKFMQLWGGGLRYPFGYWGQGTMVTVSS VL: SYVLTQPPSVSVSPGQTASITCSGERMGDKYAAWYQQKPGQSPVLVIYQDTKRPSGIPERFSGSNSGNTATLTISGTQAMDEADYYCQVWDSSTGVFGGGTKVTVL	4.1
33_640082-7 IgG1 (antibody, V domains shown, IgG1) VH: EVQLLESGGGLVQPGGSLRLSCAASGFTFSSYAMSWVRQAPGKGLEWVSGISAIDQSTYYADSVKGRFTISRDNSKNTLYLQMNSLRAEDTAVYYCARQKFMQLWGGGLRYPFGYWGQGTMVTVSS VL: SYVLTQPPSVSVSPGQTASITCSGERMGDKYAAWYQQKPGQSPVLVIYRDTKRPSGIPERFSGSNSGNTATLTISGTQAMDEADYYCGVLKQDTGVFGGGTKVTVL	0.2
33_640087-7 IgG1 (antibody, V domains shown, IgG1) VH: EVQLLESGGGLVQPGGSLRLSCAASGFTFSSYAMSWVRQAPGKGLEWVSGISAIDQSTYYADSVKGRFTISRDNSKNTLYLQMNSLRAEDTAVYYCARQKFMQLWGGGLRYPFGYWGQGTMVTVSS VL: SYVLTQPPSVSVSPGQTASITCSGEGMGDKYAAWYQQKPGQSPVLVIYRDTKRPSGIPERFSGSNSGNTATLTISGTQAMDEADYYCGVIQDNTGVFGGGTKVTVL	0.2
33_640086-6 IgG1 (antibody, V domains shown, IgG1) VH: EVQLLESGGGLVQPGGSLRLSCAASGFTFSSYAMSWVRQAPGKGLEWVSGISGIDTSTYYADSVKGRFTISRDNSKNTLYLQMNSLRAEDTAVYYCARDKFMQLWGGGLRYPFGYWGQGTMVTVSS VL: SYVLTQPPSVSVSPGQTASITCSGERMGDKYAAWYQQKPGQSPVLVIYRDTKRPSGIPERFSGSNSGNTATLTISGTQAMDEADYYCEVKVKDTGVFGGGTKVTVL	0.2
33_640237 IgG1 (antibody, V domains shown, IgG1; also called ZZ1M37-E06) VH: EVQLLESGGGLVQPGGSLRLSCAASGFTFSSYAMSWVRQAPGKGLEWVSGIADDFTSTYYADPVKGRFTISRDNSKNTLYLQMNSLRAEDTAVYYCARDLWMMNYAGGLRYPFGYWGQGTTVTVSS VL: SYVLTQPPSVSVSPGQTASITCSGERMGDKYAAWYQQKPGQSPVLVIYRDTKRPSGIPERFSGSNSGNTATLTISGTQAIDEADYYCGVLKQDTGVFGGGTKVTVL	1.8
33_640076-4 IgG1 (antibody, V domains shown, IgG1) VH: EVQLLESGGGLVQPGGSLRLSCAASGFTFSSYAMSWVRQAPGKGLEWVSGISAIDQSTYYADSVKGRFTISRDNSKNTLYLQMNSLRAEDTAVYYCARDLWMENWVGGLRYPFGYWGQGTMVTVSS VL: SYVLTQPPSVSVSPGQTASITCSGERMGDKYAAWYQQKPGQSPVLVIYRDTKRPSGIPERFSGSNSGNTATLTISGTQAMDEADYYCEVKKSDTGVFGGGTKVTVL	0.6
33_640084-2 IgG1 (antibody, V domains shown, IgG1) VH: EVQLLESGGGLVQPGGSLRLSCAASGFAFSSYAMSWVRQAPGKGLEWVSAISGSGGSTYYADSVKGRFTISRDNSKNTLYLQMNSLRAEDTAVYYCARQKFMQLWGGGLRYPFGYWGQGTMVTVSS VL: SYVLTQPPSVSVSPGQTASITCSGERMGDKYAAWYQQKPGQSPVLVIYRDTKRPSGIPERFSGSNSGNTATLTISGTQAMDEADYYCQVWRDDSPIFGGGTKVTVL	0.8
33_640082-6 IgG1 (antibody, V domains shown, IgG1) VH: EVQLLESGGGLVQPGGSLRLSCAASGFTFSSYAMSWVRQAPGKGLEWVSGISGIDTSTYYADSVKGRFTISRDNSKNTLYLQMNSLRAEDTAVYYCARQKFMQLWGGGLRYPFGYWGQGTMVTVSS VL: SYVLTQPPSVSVSPGQTASITCSGERMGDKYAAWYQQKPGQSPVLVIYRDTKRPSGIPERFSGSNSGNTATLTISGTQAMDEADYYCGVLKQDTGVFGGGTKVTVL	0.2
33_640201 IgG1 (antibody, V domains shown, IgG1; also called ZZ1JMY-H09) VH: EVQLLESGGGLVQPGGSLRLSCAASGFTFSSYAMSWVRQAPGKGLEWVSSIDAISSSTYYADSVKGRFTISRDNSKNTLYLQMNSLRAEDTAVYYCSRQKFMQLWGGGLRYPFGYWGQGTMVTVSS VL: SYVLTQPPSVSVSPGQTASITCSGERMGDKYAAWYQQKPGQSPVLVIYQDTKRPSGIPERFSGSNSGNTATLTISGTQAVDEADYYCGVLKQDTGVFGGGTKVTVL	0.3

Now consider a different binder.
*Q* Field request: IC50 | item: 33_640081 IgG1 (antibody, V domains shown, IgG1; also called ZZ1JMB-H05) VH: EVQLLESGGGSVQPGGSLRLSCAASGFTFSSYAMNWVRQAPGKGLEWVSAISGSGGSTHYADSVKGRFTISRDNSKNTLYLQMNSLRAEDTAVYYCGRAKFMQLWGGGLRYPLGYWGQGTMVTVSS VL: SYVLTQPPSVSVSPGQTASITCSGERMGDKYAAWYQQKPGQSPVLVIYQDTKRPSGIPERFSGSNSGNTATLTISGTQATDEADYYCQVWAADDTGVFGGGTKVTVL
*A* 10

Origin of values: patent US20200353078A1
